src = the supplement of paper PMC3545927

# SYSTEM UNDER TEST: furin, P09958;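 also: purified furin at 1:10 enzyme:substrate in 50 mM HEPES pH 7.5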
# Sequence (P09958 whole entry): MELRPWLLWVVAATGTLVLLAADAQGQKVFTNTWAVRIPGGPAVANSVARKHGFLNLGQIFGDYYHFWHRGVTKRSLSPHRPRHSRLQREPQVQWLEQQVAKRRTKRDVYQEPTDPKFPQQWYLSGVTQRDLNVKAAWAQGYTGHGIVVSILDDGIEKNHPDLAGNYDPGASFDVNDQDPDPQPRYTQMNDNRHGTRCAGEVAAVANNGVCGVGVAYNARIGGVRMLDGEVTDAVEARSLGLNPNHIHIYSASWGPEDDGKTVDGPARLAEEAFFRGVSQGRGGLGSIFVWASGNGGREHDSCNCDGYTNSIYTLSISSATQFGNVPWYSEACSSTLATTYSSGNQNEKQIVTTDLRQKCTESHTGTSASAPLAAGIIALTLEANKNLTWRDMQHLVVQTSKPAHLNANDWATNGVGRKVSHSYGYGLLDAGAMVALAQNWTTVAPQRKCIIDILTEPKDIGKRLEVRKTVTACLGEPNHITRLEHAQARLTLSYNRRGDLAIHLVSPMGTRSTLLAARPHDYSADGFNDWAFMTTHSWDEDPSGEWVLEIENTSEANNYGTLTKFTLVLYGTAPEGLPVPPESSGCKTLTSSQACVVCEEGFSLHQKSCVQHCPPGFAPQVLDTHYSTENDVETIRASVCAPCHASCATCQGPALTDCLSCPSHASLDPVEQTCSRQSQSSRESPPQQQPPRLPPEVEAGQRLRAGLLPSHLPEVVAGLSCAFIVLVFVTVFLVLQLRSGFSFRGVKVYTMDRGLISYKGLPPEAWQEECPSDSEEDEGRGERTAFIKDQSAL
# TEST DESCRIPTION: furin cleavage Z-score vs untreated control; higher = more cleavage, active = 3.5 or more, inactive = 1 or less, 8 variable residues between constant flanks
# STUDY CONDITIONS: 30 min
The other results are listed elsewhere or left out. No count for the full screen is at hand.
Provide the recorded furin cleavage Z-score for the entries that follow.
Please reply with the value in numeric form only.

Return furin cleavage Z-score (reported value) for this sequence: CARETRSFTKAGNASASA [FS-1699] 0.163

Return furin cleavage Z-score (reported value) for this sequence: CARYKRHFKLAGNASASA [FS-2848] 5.27

Return furin cleavage Z-score (reported value) for this sequence: CAYSHRWKRNAGNASASA [FS-112] 7.17

Return furin cleavage Z-score (reported value) for this sequence: CALETFWAKHAGNASASA [HC1039] 0.0766

Return furin cleavage Z-score (reported value) for this sequence: CARSLRSQIRAGNASASA [FS-2309] 0.712

Return furin cleavage Z-score (reported value) for this sequence: CADELAAKLVAGNASASA [HC861] 0.946

Return furin cleavage Z-score (reported value) for this sequence: CAGVRATRKTAGNASASA [HC183] 0.344

Return furin cleavage Z-score (reported value) for this sequence: CARSRRSPRAAGNASASA [FS-1794] 9.99

Return furin cleavage Z-score (reported value) for this sequence: CAGMLRQRRPAGNASASA [FS-1001] -1.03

Return furin cleavage Z-score (reported value) for this sequence: CAICQRVKRVAGNASASA [FS-1633] 1.69

Return furin cleavage Z-score (reported value) for this sequence: CARYKRPGLPAGNASASA [FS-2849] 1.9

Return furin cleavage Z-score (reported value) for this sequence: CARAPRSPRAAGNASASA [FS-3183] 8.05

Return furin cleavage Z-score (reported value) for this sequence: CAIQARAKRVAGNASASA [FS-256] 4.73

Return furin cleavage Z-score (reported value) for this sequence: CASRPSWGPTAGNASASA [HC212] -0.131

Return furin cleavage Z-score (reported value) for this sequence: CALNERLKRVAGNASASA [FS-53] 3.89
